System name: TCP pilus virulence regulatory protein (Vibrio cholerae serotype O1 (strain ATCC 39541 / Classical Ogawa 395 /O395)) (UniProt A5F384)
Sequence (whole entry): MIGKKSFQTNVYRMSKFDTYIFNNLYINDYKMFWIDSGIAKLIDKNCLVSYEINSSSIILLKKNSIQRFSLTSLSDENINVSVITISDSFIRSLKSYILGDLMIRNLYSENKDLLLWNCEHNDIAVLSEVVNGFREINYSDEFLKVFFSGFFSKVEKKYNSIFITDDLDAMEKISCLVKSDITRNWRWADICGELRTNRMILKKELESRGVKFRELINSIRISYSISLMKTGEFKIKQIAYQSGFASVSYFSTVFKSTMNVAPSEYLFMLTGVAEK
Test method notes: Inhibition of wild type ToxT in Vibrio cholerae El Tor strain C6706 at 500 nM measured after 3.5 hrs by beta-galactosidase assay relative to control
Measured metric: inhibition

>>> result("CCCCC1=C2CCC[C@@]2(C)CC[C@@H]1CC/C=C/C(=O)O")
"25%"
>>> result("CCCCC1=C2CCC[C@]2(C)CC[C@H]1CCC(=O)O")
"50%"
>>> result("CCCC1=C2CCC[C@@]2(C)CC[C@@H]1CCC(=O)O")
"60%"
>>> result("CCCCC1=C2CCC[C@@]2(C)CC[C@@H]1CCC(=O)O")
"80%"
>>> result("Cc1cccc2c1C(CCC(=O)O)CCC2 (racemic)")
"45%"
